pIC50: −log10 of the molar value.
Record type: pIC50 measurement. Applies to: Xanthine dehydrogenase/oxidase (Bos taurus)
measure-name: pIC50

1. O=C(O)c1ccc(O)c(/C=C/C(=O)c2ccc3[nH]ccc3c2)c1 | 6.86
2. CSc1ccc(C(=O)/C=C/c2cc(C(=O)O)ccc2O)cc1 | 6.71
3. O=C(O)c1ccc(O)c(/C=C/C(=O)c2ccncc2)c1 | 6.51
4. O=C(O)c1ccc(O)c(/C=C/C(=O)c2ccsc2)c1 | 6.67
5. CC(C)(C)c1ccc(C(=O)/C=C/c2cc(C(=O)O)ccc2O)cc1 | 6.26
6. O=C(O)c1ccc(O)c(/C=C/C(=O)c2cc[nH]c2)c1 | 6.52
7. O=C(O)c1ccc(O)c(/C=C/C(=O)c2ccccc2)c1 | 6.69
8. CCCCOc1ccc(C(=O)/C=C/c2cc(C(=O)O)ccc2O)cc1 | 6.53
9. O=C(O)c1ccc(O)c(/C=C/C(=O)c2nccs2)c1 | 6.65
